target: α4β1 integrin (Jurkat cell adhesion to immobilized CS-1 derived peptide CLHPGEILDVPST) (Homo sapiens, UniProt P05556+P13612); construct: 100 μl of Jurkat cells (2.5×10^6 cells/ml) in DMEM plus BSA; assay: Jurkat-CS-1 assay; conditions: Jurkat cells on CS-1 peptide coated plates; read-out: JK/CS-1 (Jurkat CS-1 Assay IC50 value range)
Sequence (P13612 34-1032): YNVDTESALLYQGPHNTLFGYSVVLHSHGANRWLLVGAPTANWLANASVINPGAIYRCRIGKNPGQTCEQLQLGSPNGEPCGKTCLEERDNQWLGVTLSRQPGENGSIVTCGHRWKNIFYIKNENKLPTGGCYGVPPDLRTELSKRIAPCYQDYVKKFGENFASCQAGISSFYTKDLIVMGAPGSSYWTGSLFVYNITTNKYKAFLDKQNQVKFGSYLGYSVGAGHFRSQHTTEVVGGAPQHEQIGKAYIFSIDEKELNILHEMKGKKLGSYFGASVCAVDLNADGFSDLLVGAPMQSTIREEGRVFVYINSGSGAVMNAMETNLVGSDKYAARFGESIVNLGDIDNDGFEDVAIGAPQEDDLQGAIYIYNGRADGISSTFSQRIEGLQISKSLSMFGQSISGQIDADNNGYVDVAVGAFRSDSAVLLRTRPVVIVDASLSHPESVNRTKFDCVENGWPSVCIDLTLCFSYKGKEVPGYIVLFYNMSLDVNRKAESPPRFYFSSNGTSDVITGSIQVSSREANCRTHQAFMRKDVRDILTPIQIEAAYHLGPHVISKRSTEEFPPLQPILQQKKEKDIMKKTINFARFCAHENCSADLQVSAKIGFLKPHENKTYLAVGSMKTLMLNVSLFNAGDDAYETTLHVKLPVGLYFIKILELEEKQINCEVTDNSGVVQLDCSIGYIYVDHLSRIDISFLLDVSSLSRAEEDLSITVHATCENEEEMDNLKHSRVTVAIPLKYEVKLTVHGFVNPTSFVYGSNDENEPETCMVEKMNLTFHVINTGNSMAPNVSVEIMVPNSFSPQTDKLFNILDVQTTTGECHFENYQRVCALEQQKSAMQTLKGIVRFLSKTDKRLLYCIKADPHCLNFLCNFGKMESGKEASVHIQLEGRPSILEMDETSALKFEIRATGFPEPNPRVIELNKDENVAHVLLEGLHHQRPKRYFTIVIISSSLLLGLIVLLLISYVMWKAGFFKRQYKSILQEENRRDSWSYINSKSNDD
Sequence (P05556 21-798): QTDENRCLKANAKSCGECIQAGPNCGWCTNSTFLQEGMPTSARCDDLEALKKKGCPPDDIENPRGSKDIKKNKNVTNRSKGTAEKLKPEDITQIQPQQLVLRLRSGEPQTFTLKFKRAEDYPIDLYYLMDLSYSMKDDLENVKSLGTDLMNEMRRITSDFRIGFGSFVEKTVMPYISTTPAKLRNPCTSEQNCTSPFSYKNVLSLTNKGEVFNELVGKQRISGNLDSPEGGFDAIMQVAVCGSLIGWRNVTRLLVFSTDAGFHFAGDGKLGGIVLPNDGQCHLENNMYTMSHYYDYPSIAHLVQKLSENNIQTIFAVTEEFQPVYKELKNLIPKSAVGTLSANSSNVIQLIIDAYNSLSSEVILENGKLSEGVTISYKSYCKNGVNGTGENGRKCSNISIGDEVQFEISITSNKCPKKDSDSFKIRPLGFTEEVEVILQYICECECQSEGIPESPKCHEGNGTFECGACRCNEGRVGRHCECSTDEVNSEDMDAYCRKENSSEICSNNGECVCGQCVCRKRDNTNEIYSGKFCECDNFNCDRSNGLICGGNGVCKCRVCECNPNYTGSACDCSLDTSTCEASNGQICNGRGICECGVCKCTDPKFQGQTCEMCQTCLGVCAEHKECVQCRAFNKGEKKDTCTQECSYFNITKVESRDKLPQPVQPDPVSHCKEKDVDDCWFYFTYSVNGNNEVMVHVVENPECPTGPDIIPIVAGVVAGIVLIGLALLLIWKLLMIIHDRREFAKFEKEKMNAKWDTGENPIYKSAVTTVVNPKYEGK

# compound, IC50
records = [
    ("COC(=O)[C@H](Cc1ccc(NC(=O)c2c(Cl)cccc2Cl)cc1)NC(=O)[C@H]1CSCN1C(=O)N(CCO)CCO", "≥ 750 nM"),
    ("CCOC(=O)N1[C@@H](C(=O)N[C@@H](Cc2ccc(NC(=O)c3c(Cl)cccc3Cl)cc2)C(=O)OC)C[C@@H]1C(=O)OC", "≥ 750 nM"),
    ("O=C(Nc1ccc(C[C@H](NC(=O)[C@H]2CSCN2C(=O)OCCN2CCOCC2)C(=O)O)cc1)c1c(Cl)cccc1Cl (relative stereo)", "≤ 50 nM"),
    ("CCOC(=O)N1CSCC1C(=O)N[C@@H](Cc1ccc(NC(=O)c2c(Cl)cccc2Cl)nc1)C(=O)O (stereo in doubt)", "≤ 50 nM"),
    ("COC(=O)[C@H](Cc1ccc(NC(=O)c2c(Cl)cccc2Cl)cc1)NC(=O)[C@@H]1CSCCN1C(=O)CCc1nnn[nH]1", "≥ 750 nM"),
    ("CCOC(=O)N1CSC[C@@H]1C(=O)N[C@@H](Cc1ccc(NC(=O)c2ccc(C)cc2)cc1)C(=O)O", "≥ 750 nM"),
    ("O=C(O)CCC1(CCC(=O)N[C@@H](Cc2ccc(NC(=O)c3c(Cl)cccc3Cl)cc2)C(=O)O)CCC(=O)N1 (stereo partly shown)", "50 to 750 nM"),
    ("O=C(O)c1cccc(C(=O)N2CCC[C@H]2C(=O)N[C@@H](Cc2ccc(NC(=O)c3c(Cl)cccc3Cl)cc2)C(=O)O)c1", "50 to 750 nM"),
    ("COC(=O)[C@H](Cc1ccc(NC(=O)c2c(Cl)cccc2Cl)cc1)NC(=O)[C@H]1CSCN1S(=O)(=O)c1ccc(C(F)(F)F)cn1", "≥ 750 nM"),
    ("COC(=O)[C@H](Cc1ccc(OCc2c(Cl)cccc2Cl)cc1)NC(=O)[C@H]1CSCN1C(=O)OC(C)(C)C (relative stereo)", "≥ 750 nM"),
    ("O=C(Nc1ccc(C[C@H](NC(=O)C2CSC3COC(=O)N32)C(=O)O)cc1)c1c(Cl)cccc1Cl (single isomer, unassigned) [Example 281]", "50 to 750 nM"),
    ("CC(c1ccccc1)N1C(C(=O)O)CC1C(=O)NC(Cc1ccc(NC(=O)c2c(Cl)cccc2Cl)cc1)C(=O)O (single isomer, unassigned) [Example 133]", "≥ 750 nM"),
    ("O=C(O)CC1(CC(=O)N2CCC[C@H]2C(=O)N[C@@H](Cc2ccc(NC(=O)c3c(Cl)cccc3Cl)cc2)C(=O)O)CCCC1", "50 to 750 nM"),
]
